measured-target: Estrogen receptor beta (Homo sapiens)
protocol-notes: qHTS assay to identify small molecule antagonists of the estrogen receptor beta (ER-beta) signaling pathway (AID 1259378)
experimental-context: ER-beta-UAS-bla HEK293T, beta-lactamase FRET ratio, 16 h; series mostly up to 92.4 µM
Results filed as inconclusive are left out. Calls of active or inactive are those of the source. Calls come from the whole dose curve; as a rule, active = well fitted inhibition curve with a large enough effect in the signal ratio in the repeat runs (not every such curve was filed as active); inconclusive = weak or mixed curves, or effect the other way; inactive = no such curve, though single readings can be large or run the other way; the % refers to the signal ratio.
Hi! Could you answer with just one of these? active, inactive

Use the examples below as a reference point.
{"molecule": "Cc1cc(C)cc(OP(=O)(Oc2cc(C)cc(C)c2)Oc2cc(C)cc(C)c2)c1", "discrete-label": "inactive"}
{"molecule": "CN(C)CCc1c[nH]c2cccc(O)c12", "discrete-label": "inactive"}
{"molecule": "CC(C)CC(C)Nc1ccc(Nc2ccccc2)cc1 (centres undefined)", "discrete-label": "active"}
{"molecule": "C=COCCCl", "discrete-label": "inactive"}
{"molecule": "c1ccc2c(c1)OCC(C1=NCCN1)O2 (centres undefined)", "discrete-label": "active"}
{"molecule": "Cc1cccc(OP(=O)(Oc2cccc(C)c2)Oc2cccc(C)c2)c1", "discrete-label": "inactive"}
{"molecule": "Cc1cc(Cl)ccc1O[C@H](C)C(=O)O", "discrete-label": "inactive"}
{"molecule": "CC(C)OS(C)(=O)=O", "discrete-label": "inactive"}

Turning now to a further molecule:
Please share the test call associated with `CCN` .
inactive

* * *

protocol-notes: Caspase-3/7 induction in CHO-K1 cells by small molecules, qHTS cell viability counter screen (AID 1346979); note: nearly all actives have a fitted effect of over 35% in size
experimental-context: CellTiter-Fluor fluorescence, 17 h; series mostly up to 92.4 µM
Inconclusive results are not listed. Calls of active or inactive are those of the source. Calls come from the whole dose curve; as a rule, active = well fitted cell-killing curve with a large enough effect in the repeat runs; inconclusive = weak or mixed curves, or effect the other way; inactive = no such curve, though single readings can be large or run the other way.
Hi! Could you answer with just one of these? 1.0 = active, 0.0 = inactive

Use the examples below as a reference point.
{"compound": "CC1(c2ccc(Oc3ccccc3)cc2)OC(=O)N(Nc2ccccc2)C1=O (stereo unspecified)", "discrete-label": 1.0}
{"compound": "CC(C)(C)c1ccc(CSc2cnn(C(C)(C)C)c(=O)c2Cl)cc1", "discrete-label": 1.0}
{"compound": "C=CC(=O)OCCCCOC(=O)C=C", "discrete-label": 1.0}
{"compound": "CC(=O)OC1(c2ccccc2)CCN(CCc2ccccc2)CC1", "discrete-label": 0.0}
{"compound": "Cn1[nH]nnc1=S", "discrete-label": 0.0}

Please share the test call associated with CCSC(C)CC1CC(=O)C(/C(CC)=N/OC/C=C/Cl)=C(O)C1 (stereo unspecified) .
0.0

Please share the test call associated with O=C1c2ccccc2C(=O)C1C(=O)C(c1ccccc1)c1ccc(Cl)cc1 (stereo unspecified) .
1.0

Please share the test call associated with `ClC1=C(Cl)[C@]2(Cl)[C@@H]3[C@@H](Cl)[C@H](Cl)C[C@@H]3[C@@]1(Cl)C2(Cl)Cl` .
0.0

Please share the test call associated with CC(C)CC(C)Nc1ccc(Nc2ccccc2)cc1 (stereo unspecified) .
1.0

Please share the test call associated with `c1cc[c]([Sb]([c]2ccccc2)[c]2ccccc2)cc1` .
1.0

Please share the test call associated with `C[C@]12Cc3nonc3C[C@@H]1CC[C@@H]1[C@@H]2CC[C@@]2(C)[C@H]1CC[C@]2(C)O` .
1.0

* * *

protocol-notes: qHTS assay to identify small molecule antagonists of the retinoic acid receptor (RAR) signaling pathway (AID 1159552; note: nearly all actives have a fitted effect of over 50% in size)
experimental-context: C3RL4 RARE luciferase reporter, retinol-stimulated, 6 h; series mostly up to 92.4 µM
Results filed as inconclusive are left out. Calls of active or inactive are those of the source. Calls follow the shape of the dose curve; as a rule, active = well fitted inhibition curve with a large enough effect in the repeat runs; inconclusive = weak or mixed curves, or effect the other way; inactive = no such curve, though single readings can be large or run the other way.
Hi! Could you answer with just one of these? active, inactive

Use the examples below as a reference point.
{"compound": "CC(=O)C(Cl)(Cl)Cl", "discrete-label": "active"}
{"compound": "O=C1NCN(c2ccccc2)C12CCN(CC1COc3ccccc3O1)CC2 (configuration not stated)", "discrete-label": "inactive"}
{"compound": "Clc1ccc(Oc2ccccc2)cc1", "discrete-label": "inactive"}

Please share the test call associated with `O=C(Nc1ccc2[nH]ccc2c1)c1cc2cc(F)ccc2n1Cc1cccc(F)c1` .
active

Please share the test call associated with `COCC(=O)N(c1c(C)cccc1C)[C@H](C)C(=O)OC` .
inactive

Please share the test call associated with `O=CC(Br)(Br)Br` .
active

Please share the test call associated with COC12CC[C@@]3(C[C@@H]1C(C)(O)C(C)(C)C)[C@H]1Cc4ccc(O)c5c4[C@@]3(CCN1CC1CC1)[C@H]2O5 (some centres not stated) .
active

Please share the test call associated with `C[As+](C)(C)CC(=O)[O-]` .
inactive

Please share the test call associated with `O=C(CBr)c1ccc(O)cc1` .
active

Please share the test call associated with `CCOC(=O)c1ccccc1S(=O)(=O)NC(=O)Nc1nc(Cl)cc(OC)n1` .
inactive

Please share the test call associated with `CCOC(=O)C1(c2ccccc2)CCN(CCC(C#N)(c2ccccc2)c2ccccc2)CC1` .
inactive

Please share the test call associated with `Cc1cc(C(F)(C(F)(F)F)C(F)(F)F)ccc1NC(=O)c1cccc(I)c1C(=O)NC(C)(C)CS(C)(=O)=O` .
inactive
